Target: T1, Porcine IF (Sus scrofa, UniProt A0A8D1ENZ1)
T1 construct: purchased Sigma Chemical Company, St. Louis, Mo
T1 sequence (A0A8D1ENZ1 29-425): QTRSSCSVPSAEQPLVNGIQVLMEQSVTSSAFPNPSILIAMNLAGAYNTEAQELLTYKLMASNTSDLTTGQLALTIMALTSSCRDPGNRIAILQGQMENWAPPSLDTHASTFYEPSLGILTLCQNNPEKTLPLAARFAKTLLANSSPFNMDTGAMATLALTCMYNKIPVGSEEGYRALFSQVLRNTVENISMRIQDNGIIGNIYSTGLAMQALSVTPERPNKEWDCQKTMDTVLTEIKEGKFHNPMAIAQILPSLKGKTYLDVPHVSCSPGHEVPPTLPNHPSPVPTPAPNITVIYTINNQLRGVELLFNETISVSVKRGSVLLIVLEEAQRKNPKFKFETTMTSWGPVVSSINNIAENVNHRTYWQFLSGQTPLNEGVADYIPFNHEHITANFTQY
Test: Intrinsic factor binding affinity, competition binding assay with 57Co-cyanocobalamin (Scatchard)
Conditions: association constant, porcine IF, conjugate 123 nM; 30 min
Parameter Measured: pKd
Expect pKd as a plain number equal to -log10 of the molar concentration.

Problem: Return reported pKd; argument: Example 8: conjugate of 5'-O-[glutaroyl]cyanocobalamin with a polyethylene glycol derivative of G-CSF (conjugate, UniProt P09919 31-207, looked up, PEG; cyanocobalamin conjugate, conjugate of 5'-O-[glutaroyl]cyanocobalamin with a polyethylene glycol derivative of G-CSF) Granulocyte …: TPLGPASSLPQSFLLKCLEQVRKIQGDGAALQEKLVSECATYKLCHPEELVLLGHSLGIPWAPLSSCPSQALQLAGCLSQLHSGLFLYQGLLQALEGISPELGPTLDTLQLDVADFATTIWQQMEELGMAPALQPTQGAMPAFASAFQRRAGGVLVASHLQSFLEVSYRVLRHLAQP
Result: 7.97
